condition.context: 318.2 K; Liquid; Alternating current cell with electrodes
Decide by electrical conductivity: equal to or exceeding 3 S/m means Condition met, less means Condition not met.

Answered cases to consult:
CCOS(=O)(=O)[O-].CCn1cc[n+](C)c1 [1-ethyl-3-methylimidazolium ethyl sulfate]: Condition not met
CCn1cc[n+](C)c1.F[B-](F)(F)F [1-ethyl-3-methylimidazolium tetrafluoroborate]: Condition not met
CCn1cc[n+](C)c1.COCCOCCOS(=O)(=O)[O-] [1-ethyl-3-methylimidazolium 2-(2-methoxyethoxy) ethylsulfate]: Condition not met

Evaluate CCn1cc[n+](C)c1.N#CN=C=[N-] [1-ethyl-3-methylimidazolium dicyanamide] : electrical conductivity at minimum 3 S/m?
Condition met

Evaluate CCn1cc[n+](C)c1.O=S(=O)([O-])C(F)(F)F [1-ethyl-3-methylimidazolium trifluoromethanesulfonate] : electrical conductivity at minimum 3 S/m?
Condition not met

Taken from the NIST ThermoML archive (doi:10.1016/j.jct.2008.07.013).
